- Tested on: Mus musculus
- protocol.details: Prodrug conversion in C57B1/6 mouse plasma assessed as parent compound level at […], iv administered as single bolus dose after 240 mins by reversed-phase LC/MS analysis
- Format: ADME, organism-based
- test.conditions: in vivo, 4 h, read-out: Drug metabolism
readout.label: concentration (nM)
One number for each entry, in nM.

**Q:** Tell me reported concentration for Cl.N=C(N)NCCC[C@H](N)C(=O)Nc1ccc(Oc2ccc(S(=O)(=O)CC3CS3)cc2)cc1 (stereo partly specified) , tested with Mus musculus.
**A:** 8.3
